Let's look at some binders and their measured % inhibition at 100 µM.
# subject-of-test: T1, Chymase, from human skin (human, UniProt P23946 22-247)
# T1 sequence (looked up): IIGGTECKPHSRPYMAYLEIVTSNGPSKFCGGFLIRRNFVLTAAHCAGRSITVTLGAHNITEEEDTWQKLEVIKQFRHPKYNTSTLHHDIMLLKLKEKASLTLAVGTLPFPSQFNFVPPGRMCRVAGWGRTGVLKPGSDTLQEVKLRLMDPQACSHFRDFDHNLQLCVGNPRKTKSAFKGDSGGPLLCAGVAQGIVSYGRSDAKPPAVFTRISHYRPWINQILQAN
# procedure-text: cell-based or functional assay
A number alone suffices; assume %.

[[record]]
binder = "XCTKSDPPICD (HELM PEPTIDE1{[O=C([C@@H](N[*:1])C1CCCCC1)[*:2]].C.T.K.S.D.P.P.I.C.D.[dP].P}$PEPTIDE1,PEPTIDE1,2:R3-10:R3|PEPTIDE1,PEPTIDE1,1:R1-13:R2$$$V2.0; SMILES CC[C@H](C)[C@@H]1NC(=O)[C@@H]2CCCN2C(=O)[C@@H]2CCCN2C(=O)[C@H](CC(=O)O)NC(=O)[C@H](CO)NC(=O)[C@H](CCCCN)NC(=O)[C@H]([C@@H](C)O)NC(=O)[C@@H]2CSSC[C@H](NC1=O)C(=O)N[C@@H](CC(=O)O)C(=O)N1CCC[C@@H]1C(=O)N1CCC[C@H]1C(=O)N[C@@H](C1CCCCC1)C(=O)N2) [Example 39]"
measured_quantity = "% inhibition at 100 µM"
recorded_measurement = 0


Now turn to the next binder.
Which % inhibition at 100 µM is listed for ICTKSDPPXCR (HELM PEPTIDE1{I.C.T.K.S.D.P.P.[Cha].C.R.[dP].P}$PEPTIDE1,PEPTIDE1,2:R3-10:R3|PEPTIDE1,PEPTIDE1,1:R1-13:R2$$$V2.0; SMILES CC[C@H](C)[C@@H]1NC(=O)[C@@H]2CCCN2C(=O)[C@H]2CCCN2C(=O)[C@H](CCCNC(=N)N)NC(=O)[C@@H]2CSSC[C@H](NC1=O)C(=O)N[C@@H]([C@@H](C)O)C(=O)N[C@@H](CCCCN)C(=O)N[C@@H](CO)C(=O)N[C@@H](CC(=O)O)C(=O)N1CCC[C@H]1C(=O)N1CCC[C@H]1C(=O)N[C@@H](CC1CCCCC1)C(=O)N2) [Example 58] ? 44.1
